Assay: Phase 1/2 clinical study: pharmacokinetics in cancer patients
Format: in vivo, human
Details: human, plasma, oral; 25 mg; 1 hr; read-out: Mean patient plasma CONC (SD)
parameter measured: concentration at 1 h
Entry format: amount then unit.

concentration at 1 h for COc1ccc(F)cc1C(=O)NCc1ccc(-c2nn([C@@H](C)C(F)(F)F)c(N)c2C(N)=O)cc1 [BTK-I] ?
572 ng/mL

====

Assay: Phase 1/2 clinical study: pharmacokinetics in cancer patients
Assay type: in vivo, human
Conditions: human, plasma, oral; 50 mg; 4 hr; read-out: Mean patient plasma CONC (SD)
parameter measured: concentration at 4 h

Value lookup for concentration at 4 h; key = COc1ccc(F)cc1C(=O)NCc1ccc(-c2nn([C@@H](C)C(F)(F)F)c(N)c2C(N)=O)cc1
1170 ng/mL
